Target: rGPig-prostasin (Cavia porcellus, UniProt A0A286XIW9)
Sequence (A0A286XIW9 1-343): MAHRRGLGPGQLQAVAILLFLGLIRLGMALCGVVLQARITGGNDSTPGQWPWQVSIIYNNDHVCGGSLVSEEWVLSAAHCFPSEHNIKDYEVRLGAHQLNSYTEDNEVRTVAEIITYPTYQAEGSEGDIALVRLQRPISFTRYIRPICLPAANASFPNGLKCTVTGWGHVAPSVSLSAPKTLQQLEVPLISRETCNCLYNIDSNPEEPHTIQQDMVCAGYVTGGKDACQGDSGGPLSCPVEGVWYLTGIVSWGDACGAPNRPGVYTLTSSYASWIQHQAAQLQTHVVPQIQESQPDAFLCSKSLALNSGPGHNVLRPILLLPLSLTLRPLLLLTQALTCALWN
Test: Biochemical assay, recombinant guinea pig prostasin, fluorescent peptide substrate
Where a name gives a salt, the structure may show the parent alone.
measure: Ki (nM)

- CN(C)C(=O)COC(=O)Cc1ccc(OC(=O)c2ccc(NC(=N)N)cc2)cc1 [Camostat mesylate]: 98

---

Biological target: rh-matriptase (Homo sapiens, UniProt Q9Y5Y6)
Sequence (Q9Y5Y6 1-855): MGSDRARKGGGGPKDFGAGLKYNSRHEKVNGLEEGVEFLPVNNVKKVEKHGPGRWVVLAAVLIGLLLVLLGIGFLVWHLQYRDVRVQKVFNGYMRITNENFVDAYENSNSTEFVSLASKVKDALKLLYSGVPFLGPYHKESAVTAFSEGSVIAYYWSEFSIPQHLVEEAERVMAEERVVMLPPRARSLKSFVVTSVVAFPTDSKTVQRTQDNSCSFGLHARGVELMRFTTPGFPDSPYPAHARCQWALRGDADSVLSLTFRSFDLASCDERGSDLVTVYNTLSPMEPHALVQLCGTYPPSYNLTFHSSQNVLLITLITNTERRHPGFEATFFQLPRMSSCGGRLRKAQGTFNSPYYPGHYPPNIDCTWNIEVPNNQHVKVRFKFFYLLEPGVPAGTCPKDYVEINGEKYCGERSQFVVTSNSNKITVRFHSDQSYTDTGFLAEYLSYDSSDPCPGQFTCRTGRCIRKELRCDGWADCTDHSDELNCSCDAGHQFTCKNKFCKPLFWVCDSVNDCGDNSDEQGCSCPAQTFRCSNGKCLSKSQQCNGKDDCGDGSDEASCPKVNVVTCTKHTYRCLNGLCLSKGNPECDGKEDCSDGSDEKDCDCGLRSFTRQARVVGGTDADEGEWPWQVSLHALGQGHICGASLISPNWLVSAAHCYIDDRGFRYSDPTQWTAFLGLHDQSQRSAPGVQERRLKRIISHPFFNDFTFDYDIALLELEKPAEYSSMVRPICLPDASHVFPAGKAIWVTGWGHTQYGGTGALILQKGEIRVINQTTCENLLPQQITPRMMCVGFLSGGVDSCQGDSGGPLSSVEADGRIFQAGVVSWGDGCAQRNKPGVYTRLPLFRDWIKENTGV
Test: Biochemical assay, recombinant human matriptase, fluorescent peptide substrate
Structures can show the parent of a compound that is named as a salt.
measure: Ki (nM)

* CN(C)C(=O)COC(=O)Cc1ccc(OC(=O)c2ccc(NC(=N)N)cc2)cc1 [Camostat mesylate] | 5
